Target: Rabbit skeletal myosin
Experiment: Skeletal muscle myosin II actin-activated ATPase assay
Settings: 20 nM skeletal muscle myosin II; read-out: SKMMII KI
quantityKind: Ki (nM)
Write the answer as a number in nM, unit excluded.

>  <recordSmiles>
Cc1cc2c(cc1C)C(=O)[C@]1(O)CCN(c3cnc4sccc4c3)C1=N2

>  <Ki / nM>
940

$$$$
>  <recordSmiles>
CCc1cc2c(s1)N=C1N(c3ccc(Cl)cc3)CC[C@@]1(O)C2=O

>  <Ki / nM>
1500

$$$$
>  <recordSmiles>
Cc1cc2c(cc1C)C(=O)[C@]1(O)CCN(c3ccc4ccoc4c3)C1=N2

>  <Ki / nM>
1500

$$$$
>  <recordSmiles>
Cc1cc2c(cc1C)C(=O)[C@]1(O)CCN(c3cnn(C)c3)C1=N2

>  <Ki / nM>
950

$$$$

Task: // lookup Ki for Cc1cc2c(cc1C)C(=O)[C@]1(O)CCN(c3ccc4ncccc4c3)C1=N2
Result: 1000

====

Test: Photostability, percentage remaining undegraded under illumination or in the dark
Conditions: percentage remaining undegraded after 4 hours illumination
quantityKind: Photostability 4 hours (%)
Write the answer as a number in %, unit excluded.

The examples below pair each entry with its known result.
>  <recordSmiles>
CCc1cc2c(s1)N=C1N(c3ccc4ccoc4c3)CC[C@@]1(O)C2=O

>  <unitOfMeasurement>
%

>  <measurement>
87.8

$$$$
>  <recordSmiles>
COc1cc(N2CC[C@@]3(O)C(=O)c4cc(C(F)(F)F)ccc4N=C23)ccn1

>  <unitOfMeasurement>
%

>  <measurement>
87.7

$$$$
>  <recordSmiles>
Cc1ccc2c(c1)C(=O)[C@]1(O)CCN(c3ccc(C)c(Cl)c3)C1=N2

>  <unitOfMeasurement>
%

>  <measurement>
92.5

$$$$
>  <recordSmiles>
Cc1ccc2c(c1)C(=O)[C@]1(O)CCN(c3ccc4cccnc4c3)C1=N2

>  <unitOfMeasurement>
%

>  <measurement>
89.8

$$$$

Task: // lookup Photostability 4 hours for Cc1cc(C)c2c(c1)N=C1N(c3ccc4ncccc4c3)CC[C@@]1(O)C2=O
Result: 88.4

====

Assay: Photostability, percentage remaining undegraded under illumination or in the dark
Settings: percentage remaining undegraded after 4 hours illumination
quantityKind: Photostability 4 hours (%)
Write the answer as a number in %, unit excluded.

Task: // lookup Photostability 4 hours for Cc1cc2c(cc1C)C(=O)[C@]1(O)CCN(c3ccc4nnccc4c3)C1=N2 [BPN-0027241]
Result: 91.6

Task: // lookup Photostability 4 hours for CNc1cc(N2CC[C@@]3(O)C(=O)c4cc(C)c(C)cc4N=C23)ccn1 [BPN-0028650]
Result: 88.7

Task: // lookup Photostability 4 hours for Cc1ccc2c(c1)C(=O)[C@]1(O)CCN(c3ccc(Cl)c(C)c3)C1=N2 [BPN-0026325]
Result: 89.0

Task: // lookup Photostability 4 hours for Cc1sc2c(c1C)C(=O)[C@]1(O)CCN(c3cccc(Br)c3)C1=N2 [BPN-0026853]
Result: 91.2

Task: // lookup Photostability 4 hours for COc1cccc(N2CC[C@@]3(O)C(=O)c4cc(F)c(C)cc4N=C23)c1 [BPN-0026618]
Result: 92.3

Task: // lookup Photostability 4 hours for Cc1ccc2c(c1)C(=O)[C@]1(O)CCN(c3ccc4ncsc4c3)C1=N2 [BPN-0027036]
Result: 90.2

Ref: patent US20250163056A1
